Tested on: plasma cGMP
Assay: In vivo monkey studies, plasma cGMP ELISA
Design: species or system male cynomolgus monkeys
Settings: dose 100 nmol/kg; 8 h postdose; monkey plasma
Numbered stars: 1 amine (or outer) side, 2 acyl side, 3 side chain; on linkers, the order of the positions; unused ones are H or OH. Bridge positions count the residues as written; N and C are the ends. Square brackets hold non-standard residues; d marks the D form. * marks the point of attachment. PEG24 = NCCOCCOCCOCCOCCOCCOCCOCCOCCOCCOCCOCCOCCOCCOCCOCCOCCOCCOCCOCCOCCOCCOCCOCCOCCC(=O)O; C20 diacid = O=C(O)CCCCCCCCCCCCCCCCCCC(=O)*; γGlu = O=C(O)[C@H](CCC(=O)[*:2])N[*:1]; 4Pal = N[C@@H](Cc1ccncc1)C(=O)O; CH2 = C([*:1])[*:2]; βAla = NCCC(=O)O
OBSERVATION_TYPE: Net cGMP (nM) Change from Baseline 8 h
Give bare numbers, in nM.

Please review the entries below; each comes with its answer.
(BFAEN2-βAla)-EKEKEKG-PEG24-EK-βAla-RSS[CFGKRIDRIGHQSGLGC]PSFRHGSPSSGAPPPS-NH2 (EKXRSSCFGKRIDRIGHQSGLGCPSFRHGSPSSGAPPPS; BFAEN2-βAla, PEG24, C-terminal amide; MOD_RES 1 N-terminal modified with (BFAEN2-beta-Ala)-EKEKEKG-PEG24-; wherein BFAEN2 is Bifurcated Fatty Acid Enantiomer 2; SITE 3 X at position 3 is beta-Alanine; MOD_RES 39 Amidation; DISULFID 7..23 Intrachain thioacetal bond) [Example 144] = 20.15
{C20 diacid-γGlu}-EKEKEKGS[4Pal]RRSSCFGGRIGRIGHQSGLGCPSFRHGGPSSGAPPPS-NH2 (disulfide 14-30) [Example 29] = 26.8
{C20 diacid-γGlu}-EKEKEKG[PEG24]EK[βAla]RSSCFGKRIDRIGHYSGLGCPSFRHGSPSSGAPPPS-NH2 (linker 15-31 via CH2) [Example 106] = 14.03

# context switch: different substance, same Net cGMP (nM) Change from Baseline 8 h
The measured Net cGMP (nM) Change from Baseline 8 h that {C20 diacid-γGlu}-EKEKEKG[PEG24]S[4Pal]RRSSCFGGRIDRIGHQSGLGCPSFRHGGPSSGAPPPS-NH2 (linker 15-31 via CH2) [Example 61] showed for plasma cGMP is 33.73
